SUBJECT OF TEST: Human PI3K gamma (Homo sapiens)
Construct: His (N); host or cells: SF9 insect cells (baculovirus)
Sequence (P48736 whole entry): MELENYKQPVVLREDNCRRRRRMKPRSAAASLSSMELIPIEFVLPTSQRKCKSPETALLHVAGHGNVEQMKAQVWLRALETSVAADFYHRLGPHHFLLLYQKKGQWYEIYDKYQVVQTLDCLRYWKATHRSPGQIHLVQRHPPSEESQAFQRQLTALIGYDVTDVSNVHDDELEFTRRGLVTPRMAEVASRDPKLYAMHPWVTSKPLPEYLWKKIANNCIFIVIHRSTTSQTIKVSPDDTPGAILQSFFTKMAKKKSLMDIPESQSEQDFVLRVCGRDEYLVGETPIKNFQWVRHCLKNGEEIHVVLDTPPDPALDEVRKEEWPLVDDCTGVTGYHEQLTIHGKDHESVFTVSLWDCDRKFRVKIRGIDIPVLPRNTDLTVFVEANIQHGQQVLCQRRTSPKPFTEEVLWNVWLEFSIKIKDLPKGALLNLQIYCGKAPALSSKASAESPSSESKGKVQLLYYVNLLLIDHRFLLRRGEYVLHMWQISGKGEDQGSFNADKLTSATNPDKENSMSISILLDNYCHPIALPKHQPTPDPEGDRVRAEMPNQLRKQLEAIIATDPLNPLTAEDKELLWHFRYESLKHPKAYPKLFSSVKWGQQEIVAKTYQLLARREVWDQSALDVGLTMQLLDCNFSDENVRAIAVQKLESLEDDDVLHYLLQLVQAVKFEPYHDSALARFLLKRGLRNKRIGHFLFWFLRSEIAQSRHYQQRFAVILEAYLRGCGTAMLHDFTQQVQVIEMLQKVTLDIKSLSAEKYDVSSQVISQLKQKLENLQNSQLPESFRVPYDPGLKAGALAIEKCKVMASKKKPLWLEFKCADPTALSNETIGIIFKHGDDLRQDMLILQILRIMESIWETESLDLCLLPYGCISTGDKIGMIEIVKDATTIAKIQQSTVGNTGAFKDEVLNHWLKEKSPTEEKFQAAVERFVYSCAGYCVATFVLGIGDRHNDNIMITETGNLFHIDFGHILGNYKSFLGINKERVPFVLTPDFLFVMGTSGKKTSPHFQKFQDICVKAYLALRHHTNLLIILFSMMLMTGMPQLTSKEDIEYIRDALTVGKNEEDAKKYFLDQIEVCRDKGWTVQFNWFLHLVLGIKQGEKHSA
PROTOCOL TEXT: Human PI3K gamma enzyme assay (HTRF)
Type: biochemical
TEST SETTINGS: concentration not given; b1389 states 1.0 μM for PI3K δ and γ; read-out: p110 gamma Percent Inhibition
READOUT LABEL: inhibition at 1 µM (%)

COMPOUND	READOUT LABEL	MEASUREMENT UNIT	RECORDED RESULT
OC(c1ccc(Br)cc1)c1cc(-c2ccncc2)sc1-c1nnc[nH]1 (stereo not shown)	inhibition at 1 µM	%	47

[P] COc1ccc(C(O)c2cc(-c3ccncc3)sc2-c2nnc[nH]2)c(F)c1 (stereo not shown)
[Q] COC(=O)Nc1cc(-c2cc(C(c3ccc(Cl)cc3)N3CCNCC3)c(-c3nnc[nH]3)s2)ccn1 (stereo not shown)
[R] O=C(O)c1sc(N2CCOCC2)nc1Cc1ccc2cccc(F)c2c1
Req: Arrange the 3 entries by inhibition at 1 µM so the values rise. Arrange the labels as the request states and list them.
Resp: Q, P, R
